Biological target: Sentrin-specific protease 8 (Homo sapiens, UniProt Q96LD8)
Sequence (Q96LD8 whole entry): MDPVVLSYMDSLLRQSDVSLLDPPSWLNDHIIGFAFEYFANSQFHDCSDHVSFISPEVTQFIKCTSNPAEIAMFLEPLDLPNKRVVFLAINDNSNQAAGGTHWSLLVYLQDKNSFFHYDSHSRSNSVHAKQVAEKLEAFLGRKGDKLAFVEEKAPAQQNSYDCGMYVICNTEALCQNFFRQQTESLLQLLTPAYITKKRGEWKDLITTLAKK
Assay: inhibition of human SENP8 cleavage activity – biochemical, luminescence, SAR follow-up (AID 504501)
Type: functional
Calls of active or inactive are those of the source. No stated cut-off is given here; in the data, actives have a measured IC50 and inactives only a lower limit.
PROPERTY_MEASURED: IC50

Worked set:
SMILES_REPRESENTATION: CSc1nc2ccc(NC(=O)c3cc4ccccc4o3)cc2s1
IC50: 0.869 µM (active)

SMILES_REPRESENTATION: Fc1ccc(/C=C/c2noc(-c3ccccc3I)n2)cc1
IC50: 23 µM (active)

SMILES_REPRESENTATION: Oc1ccccc1-c1nc(/C=C/c2ccccc2)no1
IC50: 71 µM (active)

Read the next record carefully.
Specify IC50 for `O=C(NN=c1c(=O)c2ccccc2c1=O)c1ccccc1` and stop.
19.8 µM (active)
